Data provenance is ChEMBL document CHEMBL4627246.

system: HCC 2998; test: Cytotoxicity against human HCC2998 cells assessed as effect on cell growth at 10 uM incubated for 48 hrs by sulforhodamine B assay; type: cell-based; settings: hcc 2998, 48 h
reported-property: Activity

compound=O=C(NCc1ccccc1Cl)[C@@H]1CCC(=O)N1Cc1ccccc1 measured_target="HCC 2998" experimental_value=Non-Toxic
compound=O=C1N[C@H](C(=O)NCc2ccc(Cl)cc2Cl)CO1 measured_target="HCC 2998" experimental_value=Non-Toxic
compound=COc1ccc(NC(=O)[C@@H]2C/C(=C\N(C)C)C(=O)N2)cc1 measured_target="HCC 2998" experimental_value=Non-Toxic
compound=O=C(NCc1ccc(Cl)cc1Cl)[C@@H]1CCC(=O)N1c1ccc(Cl)cc1Cl measured_target="HCC 2998" experimental_value=Non-Toxic
compound=O=C(NCc1ccccc1Cl)[C@@H]1CCC(=O)N1c1ccccc1 measured_target="HCC 2998" experimental_value=Non-Toxic
compound=O=C(NCc1ccccc1)[C@@H]1CCC(=O)N1Cc1ccc(Cl)cc1Cl measured_target="HCC 2998" experimental_value=Non-Toxic
compound="CCCCCCN1C(=O)[C@@H]2CCC(=O)N2C1N(C)C (some centres not stated)" measured_target="HCC 2998" experimental_value=Non-Toxic
compound=O=C(NCC1CCCCC1)[C@@H]1CCC(=O)N1c1ccccc1 measured_target="HCC 2998" experimental_value=Non-Toxic
compound=O=C(NCc1ccccc1Cl)[C@@H]1CCC(=O)N1Cc1ccccc1Cl measured_target="HCC 2998" experimental_value=Non-Toxic
compound=CN(C)C(=O)[C@@H]1CCC(=O)N1 measured_target="HCC 2998" experimental_value=Non-Toxic
compound=O=C(NCc1ccc(Cl)cc1Cl)c1ccccn1 measured_target="HCC 2998" experimental_value=Non-Toxic
compound=COC(=O)[C@@H]1C/C(=C\NCc2ccc(Cl)cc2Cl)C(=O)N1C(=O)OC measured_target="HCC 2998" experimental_value=Non-Toxic
compound=COc1ccc(CNC(=O)[C@@H]2CCC(=O)N2Cc2ccc(Cl)cc2Cl)c(OC)c1 measured_target="HCC 2998" experimental_value=Non-Toxic
compound="CCCCCCN1C(=O)[C@@H]2C/C(=C\\N(C)C)C(=O)N2C1N(C)C (some centres not stated)" measured_target="HCC 2998" experimental_value=Non-Toxic
compound=O=C(NCc1ccc(Cl)cc1Cl)[C@@H]1CCC(=O)N1c1ccccc1 measured_target="HCC 2998" experimental_value=Non-Toxic
compound=O=C(NCc1ccc(Cl)cc1Cl)[C@@H]1CCC(=O)N1c1cncs1 measured_target="HCC 2998" experimental_value=Non-Toxic
compound="O=C1CCCC(C(=O)NCc2ccc(Cl)cc2Cl)N1 (configuration not stated)" measured_target="HCC 2998" experimental_value=Non-Toxic
compound=O=C(NCc1ccc(Cl)cc1Cl)[C@@H]1COC(=O)N1c1cccs1 measured_target="HCC 2998" experimental_value=Non-Toxic
compound=CN1CCN(/C=C2\C[C@@H](C(=O)NCc3ccc(Cl)cc3Cl)N(c3cccs3)C2=O)CC1 measured_target="HCC 2998" experimental_value=Non-Toxic
compound=C[n+]1ccccc1C(=O)NCc1ccc(Cl)cc1Cl.[I-] measured_target="HCC 2998" experimental_value=Non-Toxic
compound=O=C(NCc1ccc(Cl)cc1Cl)[C@@H]1CCC(=O)N1Cc1ccc(Cl)cc1 measured_target="HCC 2998" experimental_value=Non-Toxic
compound=O=C1N[C@H](C(=O)NCc2ccc(Cl)cc2Cl)C/C1=C/NCc1ccc(Cl)cc1Cl measured_target="HCC 2998" experimental_value=Non-Toxic
